Value source: PubChem BioAssay (NCI)

- Test system: MDA-MB-231 breast
- Measurement Notes: NCI tumour cell line growth inhibition, 48 h
Measured Property: TGI

Worked cases, answers included:
Molecule	TGI
NCCCCn1c2c(c3ccccc3c1=O)C(=O)c1ccccc1-2	0.848 µM
O=C(c1ccccc1)c1c2ccccn2c2cccc[n+]12	> 100 µM
CC1=C2C3=C(C)C(=O)C(C)(C)CC[C@@]3(C)[C@]2(C)CCC(C)(C)C1=O	> 100 µM
O=C(CCCSc1nc(-c2ccc(Cl)cc2)cc(-c2ccc(Cl)cc2)n1)NO	13.2 µM
S=C(/N=c1/sc(Nc2ccccc2)nc2sc3c(c12)CCCC3)Nc1ccccc1	> 62.5 µM

// each molecule listed below needs its TGI
1. COC(=O)CCC(=O)NC1c2cccc3cccc(c23)Cn2c(=O)n(C)c(=O)n21 (configuration not stated)
2. Cc1cc(O)c(/C=N/C(=S)NCCc2ccccc2)c(=O)o1
3. CCOC(=O)/C(O)=C(/C=NC(=S)c1ccncc1)C(=O)OCC

["> 100 µM", "> 100 µM", "> 100 µM"]

// each molecule listed below needs its TGI
1. COc1ccc2cc(C(=O)/C=C/c3cccc(OC)c3OC)ccc2c1
2. c1ccc2c(c1)nc1n2CNCC1
3. CC(C(=O)N1c2ccccc2Sc2ccccc21)N1c2ccccc2Sc2ccccc21 (configuration not stated)
4. NS(=O)(=O)c1nnc(NC(=O)c2ccccc2)s1
5. N#Cc1nc(COCCOCc2ccccc2)oc1N
6. COc1ccc(C2CC(=O)c3c(O)c(OC)c(OC)c(OC)c3O2)c(O)c1 (configuration not stated)

1: 38.5 µM; 2: > 100 µM; 3: > 100 µM; 4: > 100 µM; 5: > 100 µM; 6: 31.7 µM

// each molecule listed below needs its TGI
1. O=C(CC(=O)N(C(=O)c1ccccc1)c1ccc(Cl)cc1)N/N=C\c1cc(N=Nc2ccccc2Cl)ccc1O
2. CN(CCCNc1ccc2ncn3c4ccccc4c(=O)c1c23)CCCN1C(=O)c2cccc3cc([N+](=O)[O-])cc(c23)C1=O
3. CNC1C(=O)C(C)C(O)(C(CC(C)C(O)/C=C/C=C/CNC(=O)C(C)(C)C(O)\C(C)=C/C=C\C=C\Cc2cnc(C)o2)OC)C12C(=O)OC2COC (configuration not stated) (tested in a mixture with another compound)

> 100 µM
1.26 µM
> 63.3 µM
